Quick reference: PBM E-score of the listed items.
Target: Stb5 (UniProt P38699)
Sequence: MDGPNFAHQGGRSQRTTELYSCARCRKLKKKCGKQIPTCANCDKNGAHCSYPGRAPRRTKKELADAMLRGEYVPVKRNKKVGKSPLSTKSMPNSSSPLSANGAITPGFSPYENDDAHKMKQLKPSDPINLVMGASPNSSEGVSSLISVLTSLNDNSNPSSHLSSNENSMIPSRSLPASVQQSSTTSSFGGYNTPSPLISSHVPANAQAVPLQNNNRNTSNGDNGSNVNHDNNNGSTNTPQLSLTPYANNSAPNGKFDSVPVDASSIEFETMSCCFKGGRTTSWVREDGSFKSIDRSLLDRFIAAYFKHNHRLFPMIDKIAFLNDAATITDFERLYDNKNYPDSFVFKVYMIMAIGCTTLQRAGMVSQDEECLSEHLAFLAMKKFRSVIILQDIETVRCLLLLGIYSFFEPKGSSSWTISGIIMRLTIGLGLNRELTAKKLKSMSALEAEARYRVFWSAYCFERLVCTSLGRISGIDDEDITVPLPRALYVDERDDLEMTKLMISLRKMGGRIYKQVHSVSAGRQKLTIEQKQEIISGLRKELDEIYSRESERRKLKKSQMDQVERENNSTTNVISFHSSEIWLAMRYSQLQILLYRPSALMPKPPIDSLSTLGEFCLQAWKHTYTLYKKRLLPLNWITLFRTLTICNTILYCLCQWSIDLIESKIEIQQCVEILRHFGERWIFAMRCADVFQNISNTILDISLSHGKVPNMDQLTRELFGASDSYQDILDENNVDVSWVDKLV
Experiment: PBM E-score (8-mer binding enrichment) (E-score (-0.5 to 0.5)); higher = stronger / more preferred TF binding
Details: protein concentration: 200 nM; construct: GST-full length
Whole data set: some 33,000 sequences, median “E-score (-0.5 to 0.5)” near -0.054, cut for the highest 2% near 0.35. This is one part of a sample in which the highest values are shown more often than they occur.
Output spec: single numeric token, no unit.

Check out these entries, answers already filled in.
inputSequence | PBM E-score
AGTACGAT | -0.165
ACGGATAT | 0.367
AGCGGGGG | 0.277
ACGGAGAA | 0.188
ACGGAGAT | 0.403
ATCTTGGG | -0.145

Item under review: `ACGGATAA` . Reported PBM E-score?
0.215

Then this sequence: `GTCGGGGA`
0.382

Now consider `AAACCCCA` and answer again.
0.0234

Subsequent entry: `ACGGAGCT`
0.373

Another sequence to look at: `ACCCCCGG`
0.336

Also `ACGGAGCC` ?
0.263

Now consider `CGACAGTA` and answer again.
0.0893

Record: `CCCAAGGA`
-0.0196

----------
Target: Stb5 (UniProt P38699)
Sequence: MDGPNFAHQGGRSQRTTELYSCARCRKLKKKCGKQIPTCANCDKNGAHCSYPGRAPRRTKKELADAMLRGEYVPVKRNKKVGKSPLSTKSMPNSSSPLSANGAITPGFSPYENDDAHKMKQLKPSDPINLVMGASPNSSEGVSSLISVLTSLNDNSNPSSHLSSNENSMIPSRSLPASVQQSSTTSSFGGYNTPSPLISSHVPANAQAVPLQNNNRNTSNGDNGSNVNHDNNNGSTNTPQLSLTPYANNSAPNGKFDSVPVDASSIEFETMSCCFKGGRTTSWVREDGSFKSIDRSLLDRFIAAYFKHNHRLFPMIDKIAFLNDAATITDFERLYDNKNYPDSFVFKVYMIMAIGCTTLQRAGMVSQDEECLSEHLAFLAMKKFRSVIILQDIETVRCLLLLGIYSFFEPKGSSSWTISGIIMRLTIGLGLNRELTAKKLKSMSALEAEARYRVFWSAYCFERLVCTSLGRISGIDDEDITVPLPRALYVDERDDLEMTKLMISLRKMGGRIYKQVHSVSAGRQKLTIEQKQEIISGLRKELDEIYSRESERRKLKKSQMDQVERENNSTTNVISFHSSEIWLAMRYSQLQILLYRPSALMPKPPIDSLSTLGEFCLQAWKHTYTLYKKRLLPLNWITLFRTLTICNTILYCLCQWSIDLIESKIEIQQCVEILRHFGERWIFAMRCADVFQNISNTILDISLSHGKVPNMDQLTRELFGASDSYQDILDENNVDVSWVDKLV
Assay: PBM E-score (8-mer binding enrichment) (E-score (-0.5 to 0.5)); higher = stronger / more preferred TF binding
Conditions: protein concentration: 200 nM; construct: GST-full length
Over roughly 33,000 sequences, “E-score (-0.5 to 0.5)” has its median near -0.054; the highest 2% begin near 0.35. What follows is part of a selection rich in the highest values, with near analogues and random picks from the rest.
parameter: PBM E-score
Answer as a number with no unit attached.

inputSequence | resultNumber
ACGGCACA | 0.0761
GGGACCTA | 0.138
ACGCTTTC | -0.205
ACGGCAAA | 0.235
CCACCGTC | 0.246
AAAAAGAA | 0.175

Recorded PBM E-score of `AAACCGTG` , please.
-0.0899

Follow-up item: `ACGGCGAG`
0.043

Continue with `ACGGCAAT`
0.377

Next up: `ACGGCGAC`
0.264

Also need `ACTAGCCC` , thanks.
0.15

Cool, now `ACGGCGTG`
0.208

Queued: `GTCCCTGA`
-0.284
